assay: Cytotoxicity against human MT4 cells measured after 3 days by CytoTox-Glo assay; type: cell-based
experimental.endpoint: CC50 at 72 h (µM)
Output spec: scalar in µM, unitless text.

See these solved cases before continuing.
- smi: "CCCCC/C=C\\C=C\\C(=O)O[C@@H]1C(COC(C)=O)=C[C@@H]2C(=O)[C@]3(C=C(C)[C@H](O)[C@@]13O)[C@H](C)C[C@@H]1[C@H]2C1(C)C"
  unit.descriptor: "µM"
  CC50 at 72 h: 14.3
- smi: "CCCCC/C=C/C=C/C(=O)O[C@@H]1C(COC(C)=O)=C[C@@H]2C(=O)[C@]3(C=C(C)[C@H](O)[C@@]13O)[C@H](C)C[C@@H]1[C@H]2C1(C)C"
  unit.descriptor: "µM"
  CC50 at 72 h: 15.2

With those in mind, consider the next compound.
(Q) For CCCCCCCCCCCCCC(=O)O[C@H]1C(C)=C[C@]23C(=O)[C@@H](C=C(CO)[C@@H](O)[C@]12O)[C@H]1[C@@H](C[C@H]3C)C1(C)C , write its CC50 at 72 h.
(A) 26.3
